System: A. baumannii 19606
Experiment: MIC assay (broth microdilution, CLSI)
Format: cell-based, Acinetobacter baumannii
Conditions: Acinetobacter baumannii, 19606; read-out: A. baumannii 19606 MIC
Parameter: MIC

Query: Notebook entry, A. baumannii 19606 assay: MIC of Oc1c(Br)cc(I)c2nc3cc(Cl)c(Cl)cc3nc12 = ?
Result: > 100 µM

Query: Notebook entry, A. baumannii 19606 assay: MIC of Cc1nc2c(I)cc(I)c(O)c2nc1C = ?
Result: > 100 µM

Query: Notebook entry, A. baumannii 19606 assay: MIC of Oc1ccc(I)c2nc3cc(Cl)c(Cl)cc3nc12 [Compound 12, 7,8-Dichloro-4-iodo-1-hydroxyphenazine] = ?
Result: > 100 µM

Query: Notebook entry, A. baumannii 19606 assay: MIC of Oc1c(Br)cc(Br)c2nccnc12 = ?
Result: 6.25 µM

Query: Notebook entry, A. baumannii 19606 assay: MIC of Oc1cccc2nc3cc(Cl)c(Cl)cc3nc12 = ?
Result: > 100 µM

====

Task for the reader: assign each of the following compounds its reported % Hemolysis (200 μM).
Test system: human red blood cells
Assay: Hemolysis assay with red blood cells
Conditions: human, 1 h, 200 μM, pH 7.2
Give the quantity in %, number only.

Query: Recorded % Hemolysis (200 μM) for Oc1c(Br)cc(I)c2nc3ccccc3nc12 [Compound 8, 2-Bromo-4-iodo-1-hydroxyphenazine] , please?
Result: 2.9

Query: Recorded % Hemolysis (200 μM) for COc1cccc2nc3cc(Cl)c(Cl)cc3nc12 , please?
Result: 1.5

Query: Recorded % Hemolysis (200 μM) for Oc1c(Br)cc(I)c2nc3cc(Cl)c(Cl)cc3nc12 , please?
Result: 2.7

Query: Recorded % Hemolysis (200 μM) for Oc1c(Br)cc(Br)c2nccnc12 , please?
Result: 1.8

====

Test system: E. faecium 700221 (VRE)
Test: MIC assay with Tiron or metal(II) cation co-treatment
Assay type: cell-based, Enterococcus faecium
Conditions: Enterococcus faecium, VRE; E. faecium 700221, 200 μM CuSO4; read-out: MIC with Cu^2+
Task for the reader: assign each of the following compounds its reported MIC.
Give the quantity in µM, number only.

Query: Recorded MIC for Oc1ccc(Br)c2nc3cc(Br)c(Br)cc3nc12 , please?
Result: 25

Query: Recorded MIC for Oc1c(Cl)cc(Br)c2nc3cc(Br)c(Br)cc3nc12 , please?
Result: 12.5

Query: Recorded MIC for Oc1c(Br)cc(I)c2nc3ccccc3nc12 [Compound 8, 2-Bromo-4-iodo-1-hydroxyphenazine] , please?
Result: 3.13

Query: Recorded MIC for Oc1ccc(I)c2nc3cc(Cl)c(Cl)cc3nc12 [Compound 12, 7,8-Dichloro-4-iodo-1-hydroxyphenazine] , please?
Result: 1.56

====

System: human red blood cells
Test: Hemolysis assay with red blood cells
Settings: human, 1 h, 200 μM, pH 7.2
Task for the reader: assign each of the following compounds its reported % Hemolysis at 200 μM.

Query: Recorded % Hemolysis at 200 μM for Oc1c(I)cc(I)c2nc3ccccc3nc12 [Compound 4, 2,4,-Diiodo-1-hydroxyphenazine] , please?
Result: ≤1%

Query: Recorded % Hemolysis at 200 μM for Oc1c(Cl)cc(Br)c2nc3ccccc3nc12 [Compound 5, 4-Bromo-2-chloro-1-hydroxyphenazine] , please?
Result: ≤1%

Query: Recorded % Hemolysis at 200 μM for Cc1nc2c(Br)cc(Br)c(O)c2nc1C , please?
Result: ≤1%

Query: Recorded % Hemolysis at 200 μM for Oc1c(I)cc(I)c2nccnc12 , please?
Result: ≤1%

Query: Recorded % Hemolysis at 200 μM for Oc1ccc(Br)c2nc3cc(Br)c(Br)cc3nc12 , please?
Result: ≤1%

Query: Recorded % Hemolysis at 200 μM for Oc1c(Br)cc(I)c2nc3cc(Cl)c(Cl)cc3nc12 , please?
Result: 2.7%

Query: Recorded % Hemolysis at 200 μM for Oc1c(Cl)cc(Br)c2nc3cc(Br)c(Br)cc3nc12 , please?
Result: 2.1%

Query: Recorded % Hemolysis at 200 μM for Oc1c(Cl)cc(Cl)c2nc3ccccc3nc12 [Compound 3, 2,4-Dichloro-1-hydroxyphenazine] , please?
Result: ≤1%

Query: Recorded % Hemolysis at 200 μM for Oc1c(Br)cc(Br)c2nc3ccc(Br)cc3nc12 [Compound 18, 2,4,8-Tribromo-1-hydroxyphenazine] , please?
Result: 2.1%

====

Task for the reader: assign each of the following compounds its reported MIC.
Tested on: S. aureus clinical isolate SA 156
Assay: MIC assay (broth microdilution, CLSI)
Conditions: Staphylococcus aureus, read-out: MIC, SA 156
Give the quantity in µM, number only.

Query: Recorded MIC for Oc1ccc(Br)c2nc3cc(Cl)c(Cl)cc3nc12 , please?
Result: 1.17

Query: Recorded MIC for COc1cccc(OC)c1C(=O)N[C@@H]1C(=O)N2[C@@H]1SC(C)(C)[C@@H]2C(=O)O [Methicillin, methicillin, reference compound] , please?
Result: 50

Query: Recorded MIC for Oc1c(Br)cc(I)c2nc3cc(Cl)c(Cl)cc3nc12 , please?
Result: 0.3

Query: Recorded MIC for Oc1c(I)cc(I)c2nccnc12 , please?
Result: 3.13

====

Assay: Aqueous solubility under MIC assay conditions
Type: physicochemical
Details: MIC assay media, 37 °C, aqueous buffer; read-out: [aq. soluble]
Task for the reader: assign each of the following compounds its reported solubility at 16 h.
Give the quantity in µM, number only.

Query: Recorded solubility at 16 h for Oc1ccc(I)c2nc3cc(Cl)c(Cl)cc3nc12 [Compound 12, 7,8-Dichloro-4-iodo-1-hydroxyphenazine] , please?
Result: 200

Query: Recorded solubility at 16 h for Oc1ccc(Br)c2nc3cc(Cl)c(Cl)cc3nc12 , please?
Result: 200

Query: Recorded solubility at 16 h for Oc1c(Br)cc(I)c2nc3cc(Cl)c(Cl)cc3nc12 , please?
Result: 200

====

Parameter: melting point

Query: Recorded melting point for Oc1c(Cl)cc(Br)c2nc3cc(Br)c(Br)cc3nc12 , please?
Result: 242 to 244 °C

Query: Recorded melting point for C=CCc1cc(Br)c2nc3cc(Br)c(Br)cc3nc2c1O , please?
Result: 187 to 189 °C

Query: Recorded melting point for Oc1c(Br)cc(Cl)c2nc3ccccc3nc12 [Compound 7, 2-Bromo-4-chloro-1-hydroxyphenazine] , please?
Result: 212 to 214 °C

Query: Recorded melting point for Oc1c(Br)cc(I)c2nc3ccccc3nc12 [Compound 8, 2-Bromo-4-iodo-1-hydroxyphenazine] , please?
Result: 186 to 188 °C

Query: Recorded melting point for Oc1c(I)cc(Br)c2nc3ccccc3nc12 [Compound 10, 4-Bromo-2-iodo-1-hydroxyphenazine] , please?
Result: 188 to 190 °C

Query: Recorded melting point for Oc1c(Cl)cc(Br)c2nc3ccccc3nc12 [Compound 5, 4-Bromo-2-chloro-1-hydroxyphenazine] , please?
Result: 229 to 231 °C

Query: Recorded melting point for CCCCc1cc(Br)c(O)c2nc3ccccc3nc12 [Compound 22, 2-Bromo-4-butyl-1-hydroxyphenazine] , please?
Result: 135 to 137 °C

Query: Recorded melting point for Oc1c(Cl)cc(Cl)c2nc3ccccc3nc12 [Compound 3, 2,4-Dichloro-1-hydroxyphenazine] , please?
Result: 205 to 207 °C

Query: Recorded melting point for Oc1c(Br)cc(Br)c2nc3ccc(Br)cc3nc12 [Compound 18, 2,4,8-Tribromo-1-hydroxyphenazine] , please?
Result: 239 to 241 °C

Query: Recorded melting point for Oc1c(I)cc(Cl)c2nc3ccccc3nc12 [Compound 9, 4-Chloro-2-iodo-1-hydroxyphenazine] , please?
Result: 175 to 177 °C

Query: Recorded melting point for Oc1c(Cl)cc(I)c2nc3ccccc3nc12 [Compound 6, 2-Chloro-4-iodo-1-hydroxyphenazine] , please?
Result: 183 to 185 °C

====

Task for the reader: assign each of the following molecules its reported MIC.
Give the quantity in µM, number only.

Query: Notebook entry, MRSA BAA-44 assay: MIC of Oc1c(Br)cc(Br)c2nc3cc4ccccc4cc3nc12 = ?
Result: 75

Query: Notebook entry, MRSA BAA-44 assay: MIC of Oc1c(Br)cc(I)c2nc3ccccc3nc12 [Compound 8, 2-Bromo-4-iodo-1-hydroxyphenazine] = ?
Result: 1.17

Query: Notebook entry, MRSA BAA-44 assay: MIC of Oc1ccc(Br)c2nc3cc(Cl)c(Cl)cc3nc12 = ?
Result: 1.17

Query: Notebook entry, MRSA BAA-44 assay: MIC of Oc1c(Br)cc(Br)c2nc3cc(Cl)c(Cl)cc3nc12 = ?
Result: 50

Query: Notebook entry, MRSA BAA-44 assay: MIC of Cc1nc2c(Br)cc(Br)c(O)c2nc1C = ?
Result: 6.25

====

Tested on: A. baumannii 19606
Test: MIC assay (broth microdilution, CLSI)
Assay type: cell-based, Acinetobacter baumannii
Conditions: Acinetobacter baumannii, 19606; read-out: A. baumannii 19606 MIC
Parameter: MIC

Query: Recorded MIC for Oc1c(Br)cc(I)c2nc3ccccc3nc12 [Compound 8, 2-Bromo-4-iodo-1-hydroxyphenazine] , please?
Result: 50 µM

Query: Recorded MIC for COc1cccc2nc3cc(Cl)c(Cl)cc3nc12 [Compound 20, 7,8-Dichloro-1-methoxyphenazine] , please?
Result: > 100 µM

Query: Recorded MIC for Oc1ccc(Br)c2nc3cc(Cl)c(Cl)cc3nc12 [Compound 11] , please?
Result: > 100 µM

Query: Recorded MIC for Oc1ccc(Br)c2nc3cc(Br)c(Br)cc3nc12 [Compound 13] , please?
Result: > 100 µM

Query: Recorded MIC for Cc1nc2c(Br)cc(Br)c(O)c2nc1C [Compound 27] , please?
Result: > 100 µM
